# assay.protocol: Mouse pharmacokinetic study, intraperitoneal dosing
# Type: in vivo
# test.parameters: male, CD-1, mouse, plasma, ip, 10 mg/kg
readout: AUC(0-t) (ng·h/mL)
Numeric only. Scale: ng·h/mL

Task: What AUC(0-t) value was documented for this molecule, Cc1nc2cc(-c3cc(F)cc(C#N)c3)ccc2s1 [Compound 18] ?
Result: 801

* * *

# assay.protocol: Mouse pharmacokinetic study, intraperitoneal dosing
# Format: in vivo
# test.parameters: male, CD-1, mouse, brain, ip, 10 mg/kg
readout: concentration at 30 min (µM)
Numeric only. Scale: µM

Task: What concentration at 30 min value was documented for this compound, Cc1nc2cc(-c3cc(F)cc(C#N)c3)ccc2s1 ?
Result: 3.75

* * *

# test.system: rat mGlu5 (Rattus norvegicus)
# Sequence (P31424 21-1203): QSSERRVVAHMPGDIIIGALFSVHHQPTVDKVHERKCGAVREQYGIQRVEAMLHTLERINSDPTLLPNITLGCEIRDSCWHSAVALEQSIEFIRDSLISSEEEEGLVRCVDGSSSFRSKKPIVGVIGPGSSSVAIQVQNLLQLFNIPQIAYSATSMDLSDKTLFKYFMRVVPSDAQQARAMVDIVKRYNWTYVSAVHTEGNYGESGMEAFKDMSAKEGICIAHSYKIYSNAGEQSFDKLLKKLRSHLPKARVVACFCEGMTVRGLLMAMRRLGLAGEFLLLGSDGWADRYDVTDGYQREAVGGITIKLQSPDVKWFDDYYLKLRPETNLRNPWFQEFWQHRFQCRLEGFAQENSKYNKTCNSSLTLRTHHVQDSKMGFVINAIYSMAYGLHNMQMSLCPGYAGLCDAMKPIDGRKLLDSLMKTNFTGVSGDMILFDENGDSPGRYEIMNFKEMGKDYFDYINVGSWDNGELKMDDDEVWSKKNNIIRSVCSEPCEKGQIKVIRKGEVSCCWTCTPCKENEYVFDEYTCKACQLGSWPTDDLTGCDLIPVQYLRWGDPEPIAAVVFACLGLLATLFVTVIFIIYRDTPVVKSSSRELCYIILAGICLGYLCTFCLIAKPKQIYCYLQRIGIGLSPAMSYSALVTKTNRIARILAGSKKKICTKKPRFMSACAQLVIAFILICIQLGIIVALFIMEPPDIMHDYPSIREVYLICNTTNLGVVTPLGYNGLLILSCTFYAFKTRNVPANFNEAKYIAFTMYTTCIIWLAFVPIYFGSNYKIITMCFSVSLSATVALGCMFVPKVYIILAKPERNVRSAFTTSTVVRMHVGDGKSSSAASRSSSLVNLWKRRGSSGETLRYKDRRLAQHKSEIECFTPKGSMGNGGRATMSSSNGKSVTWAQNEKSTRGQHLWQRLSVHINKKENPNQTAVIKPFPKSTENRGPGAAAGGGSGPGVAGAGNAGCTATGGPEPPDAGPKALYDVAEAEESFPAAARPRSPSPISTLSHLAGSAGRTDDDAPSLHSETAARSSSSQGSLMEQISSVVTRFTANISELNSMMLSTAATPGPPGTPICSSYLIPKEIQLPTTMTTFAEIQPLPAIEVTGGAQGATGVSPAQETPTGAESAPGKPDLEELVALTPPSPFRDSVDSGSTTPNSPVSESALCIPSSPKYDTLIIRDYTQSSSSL
# assay.protocol: Calcium mobilization assay
# Type: cell-based
readout: pIC50
The quantity pIC50 is defined as the negative base-10 logarithm of the molar concentration.

Task: What pIC50 value was documented for this molecule, Cc1nc2cc(-c3cc(F)cc(C#N)c3)ccc2s1 ?
Result: 7.21
